ASSAY PROCEDURE: physchem
RUN CONDITIONS: pH 7.4 buffer
Class True: solubility thermodynamic at least 30 µM. Class False: solubility thermodynamic below 30 µM.

COMPOUND: COc1cc2ncnc(Nc3cc4ccccc4cn3)c2cc1OC
CLASSIFICATION: False

COMPOUND: Oc1ccc(-c2nc3ccc(O)cc3s2)cc1
CLASSIFICATION: False

COMPOUND: CCN1C(=O)N(C)c2cnc(Nc3ccc(C(=O)NC4CCN(C)CC4)cc3OC)nc2N1C1CCCC1
CLASSIFICATION: True

COMPOUND: Cc1ccc(Oc2ccc(Nc3ncnc4cccc(O[C@@H](C)C(=O)N(C)C)c34)cc2C)cn1
CLASSIFICATION: False

COMPOUND: Cc1c(Br)sc2nc(O)c(-c3ccccc3)c(O)c12
CLASSIFICATION: False

COMPOUND: O=C1Nc2ccc(Cl)cc2C(c2ccccc2Cl)=NC1O (stereo not given) [LORAZEPAM]
CLASSIFICATION: True

COMPOUND: CCOC(=O)c1ccccc1-c1csc(NS(=O)(=O)c2ccc(Cl)cc2)n1
CLASSIFICATION: False

COMPOUND: O=C(O)CCC[C@@H]1c2ccccc2C[C@H]1NC(=O)c1cc2cc(F)ccc2[nH]1
CLASSIFICATION: True

COMPOUND: CN(C(=O)c1ccncc1)C1CCN(CCC(c2ccccc2)c2ccccc2)CC1
CLASSIFICATION: True

COMPOUND: COC[C@@H](C(N)=O)N(C)Cc1cc2c(Nc3cccc(Cl)c3F)ncnc2cc1OC
CLASSIFICATION: False
